# methodDescription: label from the status in PepcDB records
measuredProperty: protein production

{"columns": ["entrySequence", "measValue"],
 "data": [
  ["MASSLITSAVIVVVLSLVLGSVEQVSGLRHVPKSPKTTDVKHPDFLVTIEPKPTILIPGVGRFLLPPKCKKPFYPYNPVTGAPLTGGGIPSYNGGQGAGPHTQLPGGDDTLVPNPGFEAPTPTIGAGTGSNGQVPPVPLP", "failed"],
  ["MNKWVITSLFAISTLSASVASALEVRYMATPQQSTWQMATNTPLECRLVHPIPNYGDAEFSSRAGKKINLDFELKMRRPMGDTRNVSLVSMPPVWRPGEGADRITNLQFFKQFDGYIGGQTAWSLLSELEKGRYPTFSYQDWQSRDQRIEVALSSVLFQQPYNEFSDCISKLLPYSFEDISFTILHYDQGTSVELNKASQKRLAQIAEYVRYNQDIDLVLVSTYTDSTDTNNNSQNLSEQRAEVLREYFKSIGLPEDRIQVQGYGKRRPIADNASPIGKDKNRRVVISLGRTQV", "failed"],
  ["MSHAKGFKKDYYGGTLMALVGLAAVMAGLQYHTGSLSHMGPGFFPVAVGALLAFVGVLIAVSARNDEPKEDKPSGHGHSHAAPDLRGTVCIVLGTLAFLLFGKYGGMIPATFAIVFISALGDRSNSIKQAFLLSIAMCVIAAVVFSWALQLQLPMFTWGA", "failed"],
  ["MVDQSAVGRRFTPVTAHVEAGRLRYFLDTLGETNPVYRDAAAAKVEGFAAPPVPPTYLFCLEMLDNERPFEFLTALEIDLGRVLHGEQSFTYHAPVMVGDTLTFSPQVTSVTDKKGGAMTLIGVATAVTNQHGVHVADTTRTIVVRNGLEHHHHHH", "not failed"],
  ["MWSSREIEDLGLTFAIAIDKGKETNTEKELKEEGGSYPKKDNITLTYQFVNEKAAGAGTSGGGGSGQGAQKAYINISETGDSLQQIGSEVALRRDREVFSPHLKVVVMSEDVLHTFPIDEMLDQFFRDNEIRLSCLVLSAKGEARDALQLKENGEIPAFRLIGLGENEHKVSRILPPMTLAKLIGKLHSGSSFLLQNVVAANGAVKYSGAAVINGKSKKMIGTLNEYETEGITWIRGEGKGGVVKSHDKKSQQTLAYDINKIKSRIQPIVKGKDISFHVDIESEGDLVENWNTKEALDTQFIDRLETTIENEVKKIVGQVLKKIQHDYKADVAGFDESFRLTYPHLWKRVKNNWDDTFSKADITYSVNVTITHFGTVKTQLEHHHHHH", "not failed"],
  ["MILTLLQNGDYETARTQALTELKNNSDNAELHYYAAWAHDALGKEDAAIPFYEKALQLGLPADSRKEAYIGLGSTYRITGQPEKSIRLFETALQEFPDNNALRTFSVMAKYNQGLEKEALEEALMLLTQTTSDEDILSYKKAIQFYAQDLDATFHLEHHHHHH", "not failed"],
  ["MNKVLINDTTLRDGEQAAGVVFTLEEKVAIAKFLDTIGVPELEVGIPAMGEEEMRAICAISNLGLKANLLAWNRAVISDIKASVACGMERVHIAIPVSGIQIAAKFHGQWRVSLQRLKDCISFAVDQGLWVAVGGEDSSRADENFLLDVALYAQEWGASRFRFCDTVGVLDPFTTYGKVKLLVSALTIPVEVHTHNDFGMATANALAGIKAGASSVNTTVIGLGERAGNAALEEVVMAIKRIYGVDMGIDTPRLLELSQLVAAASGANVPPWKAIVGENTFAHESGIHAHGVLQNPDTYEPFAPEEVGWERRLVVGKHSGRHSVSNLLEQHGIFLNPEETQSVLDAVRQQSIKKLEHHHHHH", "failed"],
  ["MSLSNGELAILVFGYPETMANQVIAYFQEFGTILEDFEVLRKPQAMTVGLQDRQFVPIFSGNSWTKITYDNPASAVDALLENGAVFNGVLLGVIPYTKDAVERLQKRKLTSSEDIGSGITTAAAEGHHHHHH", "not failed"],
  ["MRMRSGTAVAGVAALAVAGMALTAAFEPVWAHGPTRQKVRESIEINAAPAKVWAVIGNFQDMSWLPPVTKTEGEKGNEIGATRRLTLTGGATVDEELYKFDAAAMTYSYRITAVDVKVLPVTNYSSTLTVTPSADGKGATLEWAGAFYRGFPNNDPPPELSDEAAKTAVSGLYKAGLEALKKKIESGS", "failed"],
  ["MDLLLKAALGAAVVVILAALAKTRNYYIAGLVPLFPTFALIAHYIVGKGRSLDDLKTTILFGMWSIIPYFVYLATLYVMVDRLRLEASLAVAAVAWLIAATILVSVWVRLHA", "failed"],
  ["MQSIRSILVVIDPTPGESLALKRAKLIAGVTQAHLHLLVCDRKHEHSALLSVLKSSLTGEGYSVTTEQAWNESLHETIIDVQQAEGCGLVIKQHLPDAPLKKALLTPADWKLLRYCPTPVLLVKTATPWVGGVVMAAIDVGNMDGEHRALHASIVDHGFDIASLAKAQLHVISAHPSPMLSAADPVFQLKETIEARYREQCKAFQAEFDIDDAHLHIEEGPADVLIPHLAHKLGAVLTIIGTVARTGISGALIGNTAEVVLDSLDSDVLVLKPADIMDHLEELAAKA", "not failed"],
  ["MSLEAAGGIVWRWKAGSDIANDPAIASSKSAQEQLDSIEVCIVHRPKYDDWSWPKGKLEQNETHRHAAVREIGEETGSPVKLGPYLCEVEYPLSEEGKKTRHSHDCTADTKHTLYWMAQPISADDAEHLLDAFGPVHRADVGEINDIVWVSVREARKILSHSTDKDTLAVFVDRVQEGAATAQNLLIVRHAKAESRKSWKGTDANRPITPKGAAMAFALNRELACFNPTRLATSPWLRCQETLQVLSWQTERPMEHINTLTEDAFAEHPAVSWLAFREQITQTLNSRETTAICMHRPVIGGMYDHLRGLCARKQLAKQLIAKSPYMPTGTAMSLFIIDTPQGPSIIDIQKVSPIVYEGHHHHHH", "not failed"],
  ["IESASDMIAAFGKDQRFITFNEAYQREFKRLFDKSISINMSLEEAFNNAPENKKKLVQSWKESLQRDEETKNIEVNTEQEKTIYEMTSKLIQNGDNEIKGVVHSVRNIT", "failed"]
]}
